- experimental-target: acetylcholine receptor
- assay: SPR, peptide at 10 uM, acetylcholine receptor immobilized on chip
measured-metric: Binding affinity (RU)

Solved entries (count: 3):
RCMHK [5mer-620] : 23
RAWVR [5mer-930] : 20
KDHIR [5mer-611] : 33

(I) KHTFK [5mer-913]
(II) RYMDR [5mer-628]
Query: Select one. Lower Binding affinity (RU): I or II Provide the label of your selected option as the answer.
Reply: I
